Tested on: Neuregulin-1 EGF-like domain
Test: binders of neuregulin-1 EGF-like domain, primary screen, biochemical, small-molecule microarray, 635 nm fluorescence (AID 1081);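 note: binding of the protein to compounds printed on small-molecule microarray slides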
Details: small-molecule microarray binding, higher = more signal
Reported composite z-score values for the following compounds.
Enter a number only.

Record excerpt, results attached:
# COMPOUND, composite z-score
rows = [
    ("C=C(COC)C(=O)CC[C@@H](OC(=O)c1ccccc1-c1ccccc1C(=O)O)c1ccccc1OCCO", 1.12),
    ("COc1c(C)cc(-c2cc3c(c(CCc4ccccc4)n2)[Si](C(C)C)(C(C)C)O[C@H]3c2ccccc2)cc1C", -0.0748),
    ("O=C(CS)NCCCCCCNC(=O)[C@H]1C[C@H]2C(=O)NCC(=O)N2[C@H]1c1cccc(OCCO)c1", 1.36),
]

Ask: Please report the recorded composite z-score for COc1cc(CO)cc(I)c1O[C@H]1C=C(C(=O)NCCO)C[C@@H](N(CCN2CCOCC2)C(=O)C2CCCO2)[C@@H]1O (some centres undefined) .
Result: 0.201
